# measured target: human catalytic domain HDAC4 protein (Homo sapiens, UniProt P56524, A743G/DEL730-739/DEL742-742)
# Sequence (P56524 with tags, fused parts or gaps A743G/DEL730-739/DEL742-742): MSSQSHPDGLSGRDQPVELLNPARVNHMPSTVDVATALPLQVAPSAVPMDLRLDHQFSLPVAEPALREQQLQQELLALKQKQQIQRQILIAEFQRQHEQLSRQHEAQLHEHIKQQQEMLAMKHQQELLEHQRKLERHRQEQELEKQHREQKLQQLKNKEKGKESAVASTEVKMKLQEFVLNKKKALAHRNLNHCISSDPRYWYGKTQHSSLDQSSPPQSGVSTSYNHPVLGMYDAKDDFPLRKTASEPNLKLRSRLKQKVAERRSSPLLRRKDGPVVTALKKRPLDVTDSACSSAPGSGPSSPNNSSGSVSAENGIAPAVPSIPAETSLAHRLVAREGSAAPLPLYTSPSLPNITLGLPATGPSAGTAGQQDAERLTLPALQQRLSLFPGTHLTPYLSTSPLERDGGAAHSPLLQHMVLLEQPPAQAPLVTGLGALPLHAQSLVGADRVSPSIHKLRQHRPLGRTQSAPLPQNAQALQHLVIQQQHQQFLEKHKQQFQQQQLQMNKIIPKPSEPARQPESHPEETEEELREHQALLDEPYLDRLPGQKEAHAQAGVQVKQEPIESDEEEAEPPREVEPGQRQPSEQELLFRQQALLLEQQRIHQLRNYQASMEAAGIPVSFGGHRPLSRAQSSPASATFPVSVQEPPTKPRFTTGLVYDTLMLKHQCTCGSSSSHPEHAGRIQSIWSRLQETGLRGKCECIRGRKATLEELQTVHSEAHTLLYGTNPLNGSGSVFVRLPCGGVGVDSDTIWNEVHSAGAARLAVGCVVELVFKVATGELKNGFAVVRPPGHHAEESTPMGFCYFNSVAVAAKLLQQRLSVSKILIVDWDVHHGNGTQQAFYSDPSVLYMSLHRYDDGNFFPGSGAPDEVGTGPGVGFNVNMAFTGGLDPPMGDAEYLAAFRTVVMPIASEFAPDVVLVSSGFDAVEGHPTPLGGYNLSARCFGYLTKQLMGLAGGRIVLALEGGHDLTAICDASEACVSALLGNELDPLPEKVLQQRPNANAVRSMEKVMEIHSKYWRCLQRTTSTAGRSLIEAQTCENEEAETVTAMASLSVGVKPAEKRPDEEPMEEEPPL
# run description: Inhibition of HDAC4 catalytic domain enzymatic activity, Boc-Lys(Tfa)-AMC substrate, fluorescence
# experimental parameters: read-out: Biochemical HDAC-4 IC50
readout: IC50 (nM)

[
  {
    "compound": "O=C(NO)[C@@]1(F)[C@H](c2ccccc2)[C@H]1c1ccc(-c2cnc(C3CC3)o2)cc1 (racemic)",
    "test result": 4650
  },
  {
    "compound": "O=C(NO)[C@]1(F)[C@H](c2ccccc2)[C@H]1c1ccc(-c2cnc(C3CC3)o2)cc1 (racemic)",
    "test result": 20
  },
  {
    "compound": "O=C(NO)[C@]1(F)[C@H](c2ccccc2)[C@H]1c1ccc(Br)cc1 (racemic)",
    "test result": 60
  }
]

a: O=C(NO)[C@]1(F)[C@H](c2ccccc2)[C@H]1c1cnc(-c2ccc(F)cc2)s1
b: O=C(NO)[C@@]1(F)[C@H](c2ccccc2)[C@H]1c1cc(Cl)c2c(c1)OCCO2 (racemic)
Task: Field: lower IC50 | Options: a / b Answer by stating the label of the chosen item.
Result: a
